# System: GB-1
# PROTOCOL_DETAILS: Cell viability (Promega CellTiter-Glo), inhibitory effect on tumor cell line
# Format: cell-based
# CONDITION_SUMMARY: GB-1, human glioblastoma cell; insensitive group; 3-4 days of culture; n=3
Each entry below carries its reported IC50.
# number only, unit µM dropped from output

> print(dat)
                              compound  measured
1  O=C1OCCN1/N=C/c1ccc([N+](=O)[O-])o1      38.4

Next item in the queue.
Record O=C(N/N=C/c1ccc([N+](=O)[O-])o1)c1ccc(O)cc1 [Nifuroxazide, nifuroxazide] . Reported IC50: 20
